Values compiled from ChEMBL document CHEMBL4130376.

Test: Cmax in ICR mouse at […], po
Type: ADME, organism-based
Design: dose 7.9 mg/kg, route oral
Details: in vivo
Value Kind: Cmax
Please append the unit to your numeric answer.

Give recorded Cmax. `CC(C)(O)CCn1c(Cn2nc(S(C)(=O)=O)c3ccncc32)nc2cc(Cl)ccc21`
324 ng/mL

---

Test: Volume of distribution at steady state in rat at 1 mg/kg, iv
Assay type: ADME, organism-based
Conditions: in vivo, read-out: Vdss
Value Kind: Vd (L/kg)
Quick note: give the figure in L/kg, leave out the unit.

Give recorded Vd. `CS(=O)(=O)CCCn1c(Cn2cc(S(C)(=O)=O)c3ccccc32)nc2cc(Cl)ccc21`
2.71

---

Assay: Tmax in ICR mouse at 25 mg/kg, po
Type: ADME, organism-based
Conditions: in vivo
Value Kind: Tmax
Please append the unit to your numeric answer.

Give recorded Tmax. `CS(=O)(=O)c1nn(Cc2nc3cc(Cl)ccc3n2CCCCO)c2cnccc12`
15 min

---

Test: Metabolic stability in human liver microsomes by high-throughput screening based assay
Type: ADME, microsome
Settings: read-out: Stability
Value Kind: log10 of CLhep predicted (log10 of the value in mL/min/kg)
// do not treat as linear: log10 of CLhep predicted, unit mL/min/kg

CS(=O)(=O)c1nn(Cc2nc3cc(Cl)ccc3n2CCCO)c2cnccc12; 0.47
CS(=O)(=O)c1nn(Cc2nc3cc(Cl)ccc3n2CC2COC2)c2cnccc12; 0.59
CS(=O)(=O)CCn1c(Cc2cn(S(C)(=O)=O)c3ccccc23)nc2ccccc21; 1.22
CC(C)(O)CCn1c(Cn2nc(S(C)(=O)=O)c3ccncc32)nc2cc(Cl)ccc21; 0.47
CS(=O)(=O)CCCn1c(Cn2nc(S(C)(=O)=O)c3ccccc32)nc2cc(Cl)ccc21; 0.53
CS(=O)(=O)c1nn(Cc2nc3cc(Cl)ccc3n2CCCCO)c2cnccc12; 0.41
CS(=O)(=O)CCCn1c(Cn2nc(S(C)(=O)=O)c3ccncc32)nc2cc(Cl)ccc21; 1.05

Kindly consider the entry below.
Give recorded log10 of CLhep predicted. `CS(=O)(=O)c1nn(Cc2nc3cc(Cl)ccc3n2CCC(F)(F)F)c2cnccc12`
0.04

---

Test: Metabolic stability in human liver microsomes by high-throughput screening based assay
Assay type: ADME, microsome
Details: read-out: Stability
Yes means recorded CLhep predicted is 5 mL/min/kg or above; No means it is below 5 mL/min/kg.

CS(=O)(=O)c1nn(Cc2nc3cc(Cl)ccc3n2CCCCC(F)(F)F)c2cnccc12; No
CS(=O)(=O)CCCc1c(CN2C(=O)C3(CC3)c3ccncc32)nc2cc(Cl)ccn12; Yes
CS(=O)(=O)CCCn1c(Cn2cc(S(C)(=O)=O)c3ccccc32)nc2cc(Cl)ccc21; No
CS(=O)(=O)CCc1c(CN2C(=O)C3(CC3)c3ccncc32)nc2cc(Cl)ccn12; No
CS(=O)(=O)c1nn(Cc2nc3cc(Cl)ccc3n2CCC(O)C(F)(F)F)c2cnccc12 (stereo not drawn); No

Exam item: decide whether the reported CLhep predicted for `CC(C)(O)CCCn1c(Cn2nc(S(C)(=O)=O)c3ccncc32)nc2cc(Cl)ccc21` is at least 5 mL/min/kg.
Yes

Exam item: decide whether the reported CLhep predicted for `CS(=O)(=O)c1nn(Cc2nc3cc(Cl)ccc3n2CCOCCO)c2cnccc12` is at least 5 mL/min/kg.
No

Exam item: decide whether the reported CLhep predicted for `CN(C)S(=O)(=O)c1cn(Cc2nc3cc(Cl)ccc3n2CCCS(C)(=O)=O)c2ccccc12` is at least 5 mL/min/kg.
Yes
